We begin with a simple list: items and their reported pIC50.
molecular target: JAK2 (recombinant purified GST-tagged catalytic domain) (Homo sapiens (Human)); assay: biochemical;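 note: biochemical JAK kinase assay with HTRF detection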
Sequence (O60674 849-1124): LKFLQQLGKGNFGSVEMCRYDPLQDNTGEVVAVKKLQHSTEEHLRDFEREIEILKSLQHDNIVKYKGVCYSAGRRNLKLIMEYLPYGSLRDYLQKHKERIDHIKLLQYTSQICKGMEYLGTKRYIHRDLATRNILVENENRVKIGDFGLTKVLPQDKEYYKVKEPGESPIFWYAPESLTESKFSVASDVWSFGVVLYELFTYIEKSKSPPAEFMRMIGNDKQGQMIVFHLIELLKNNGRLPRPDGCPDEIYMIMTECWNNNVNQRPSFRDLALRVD
The read-out pIC50 is expressed as -log10 of concentration in moles per litre.

Answer with the recorded pIC50 of CC1(CN[C@H]2CCC(n3cc(C(N)=O)c(Nc4ccc(Cl)cc4)n3)[C@@H](C#N)C2)COC1 (single isomer, unassigned) only.
7.33

Report pIC50 for N#C[C@H]1C[C@@H](NCC(F)F)CC[C@@H]1n1cc(C(N)=O)c(Nc2ccnc(F)c2)n1 (single isomer, unassigned)
7.48

Item CC(C)(O)[C@H]1CC[C@H](n2cc(C(N)=O)c(Nc3ccc(Cl)cc3)n2)[C@@H](C#N)C1 (single isomer, unassigned) [Example 36-2] : provide pIC50
7.70

Next:
Annotate the molecule N#C[C@H]1C[C@H](OCC2CC2)CC[C@@H]1n1cc(C(N)=O)c(Nc2ccc([C@@H](O)C(F)(F)F)cc2)n1 (single isomer, unassigned) with its measured pIC50.
7.85

Entry CC(C)(O)C1CN([C@H]2CC[C@H](n3cc(C(N)=O)c(Nc4ccc(C(F)(F)F)cc4)n3)[C@@H](C#N)C2)C1 (single isomer, unassigned) needs its pIC50 filled in; supply it.
7.11

Look up and report measured pIC50 for this entry: COCCN[C@H]1CCC(n2cc(C(N)=O)c(Nc3ccc(Cl)cc3)n2)[C@@H](C#N)C1 (single isomer, unassigned)
7.64
